Data provenance is the supplement of paper PMC10567573.

B1: FBXO3 (parent)
chain: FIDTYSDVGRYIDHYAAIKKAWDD

Variants of: B1
Assay: protein stability index of a GFP-peptide fusion (GPS, HEK-293T) (PSI 1-6); higher = more stable;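 note: lentivirally expressed fusions sorted by FACS into six bins by GFP to DsRed ratio, PSI derived from sequencing read proportions per bin multiplied by bin number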
Conditions: c terminus: a fixed tail appended
value.type: protein stability index

[
  {
    "variant.label": "D23M",
    "value.type": "protein stability index",
    "observed.measurement": 2.56
  },
  {
    "variant.label": "K20M",
    "value.type": "protein stability index",
    "observed.measurement": 2.49
  },
  {
    "variant.label": "D13I",
    "value.type": "protein stability index",
    "observed.measurement": 2.88
  },
  {
    "variant.label": "D7A",
    "value.type": "protein stability index",
    "observed.measurement": 1.21
  },
  {
    "variant.label": "G9I",
    "value.type": "protein stability index",
    "observed.measurement": 1.75
  },
  {
    "variant.label": "H14W",
    "value.type": "protein stability index",
    "observed.measurement": 1.87
  },
  {
    "variant.label": "D23Y",
    "value.type": "protein stability index",
    "observed.measurement": 2.04
  },
  {
    "variant.label": "Y5I",
    "value.type": "protein stability index",
    "observed.measurement": 2.05
  },
  {
    "variant.label": "V8T",
    "value.type": "protein stability index",
    "observed.measurement": 1.65
  },
  {
    "variant.label": "V8N",
    "value.type": "protein stability index",
    "observed.measurement": 2.2
  },
  {
    "variant.label": "A21G",
    "value.type": "protein stability index",
    "observed.measurement": 3.18
  },
  {
    "variant.label": "I12C",
    "value.type": "protein stability index",
    "observed.measurement": 2.21
  },
  {
    "variant.label": "I18F",
    "value.type": "protein stability index",
    "observed.measurement": 2.12
  }
]
